# test description: High-throughput drug toxicity screening in the BPDCN cell line Gen2.2 (AID 1224824);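 note: cells exposed to compounds for 48 h before reading; 100% = DMSO and 0% = bortezomib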
# measurement conditions: Gen2.2 BPDCN cells; at 45.8 µM (top of the series) unless noted
# Description: Blastic plasmacytoid dendritic cell neoplasm (BPDCN) is a rare, aggressive and largely incurable hematologic malignancy originating from plasmacytoid dendritic cells (pDCs). Although an initial response to chemotherapy is common, BPDCN prognosis is extremely poor and most patients relapse with drug-resistant disease leading to a median overall survival of ~1 year after diagnosis. […]
Below is a list of entries, each paired with its recorded cell viability, % of control (lower = more cytotoxic) value.
Give just the numeric value; % need not be written.

## Task Any idea what its cell viability, % of control (lower = more cytotoxic) is? The molecule is CN1CC[C@@H](c2c(O)cc(O)c3c(=O)cc(-c4ccccc4Cl)oc23)[C@@H](O)C1
## Result 7.16

## Task Could you do the same for Cn1cc(-c2[nH]c3cc(NC(=O)[C@H](N)C4CCCCC4)cc4c3c2C=NNC4=O)cn1 , please?
## Result 28.9

## Task Could you do the same for CCCn1c(=O)c2[nH]c(-c3cnn(Cc4cccc(C(F)(F)F)c4)c3)nc2n(CC)c1=O , please?
## Result 49.4

## Task Could you do the same for CNc1nccc(-c2cccnc2Oc2cc(C(=O)Nc3cccc(C(F)(F)F)c3)ccc2C)n1 , please?
## Result 13

* * *

# test description: qHTS of pediatric cancer cell lines to identify multiple opportunities for drug repurposing: Primary screen for SJ-GBM2 cells (AID 1347091)
# measurement conditions: SJ-GBM2 viability, CellTiter-Glo luminescence, 48 h; series mostly up to 46 µM
Records with an inconclusive call do not appear. Calls of active or inactive are those of the source. The call rests on the fitted dose curve; in most records, active means well fitted cell-killing curve with a large enough effect; inconclusive means small, poorly fitted or top-dose-only effect; inactive means no such curve, though single readings can be large or run the other way.
Would you mind answering with one of these outcomes? 1 = active, -1 = inactive

Some solved entries appear below for comparison.
1) COc1ccc(C(=O)CC2(O)C(=O)Nc3c(Cl)ccc(Cl)c32)cc1 (stereo not drawn)
1
2) COc1cc2c(Nc3ccc(NC(=O)c4ccccc4)cc3)ncnc2cc1OCCCN1CCOCC1
1
3) CC[C@@H]1C(=O)N(C)c2cnc(Nc3ccc(C(=O)NC4CCC(N5CCN(CC6CC6)CC5)CC4)cc3OC)nc2N1C(C)C (stereo partly drawn)
1
4) CC(=O)OCCN1C(=O)c2c(C)nc3ccc(S(=O)(=O)N4CCOCC4)cc3c2C1=O
-1
5) O=C(Nc1cn[nH]c1-c1nc2ccc(CN3CCOCC3)cc2[nH]1)NC1CC1
1
6) Nc1nccc(Oc2ccc(NC(=O)c3c[nH]cc(-c4ccc(F)cc4)c3=O)cc2F)c1Cl
1
7) CC1(C)OC2=C(C(=O)c3ccccc3C2=O)[C@H](NCc2ccccc2)[C@H]1O
1
8) CC=C1NC(=O)[C@H]2CSSCCC=C[C@H](CC(=O)N[C@H](C(C)C)C(=O)N2)OC(=O)[C@H](C(C)C)NC1=O
1
9) Cn1c2ccccc2c2c3c(c4c5ccccc5n(CCC#N)c4c21)CNC3=O
1
10) Cc1cn(-c2cc(NC(=O)c3ccc(C)c(Nc4nccc(-c5cccnc5)n4)c3)cc(C(F)(F)F)c2)cn1
1

Below: the item to evaluate.
## Task # outcome recorded in this test, key = C=CC(=O)Nc1cccc(Oc2nc(Nc3ccc(N4CCN(C)CC4)cc3)ncc2Cl)c1
## Result 1

* * *

# System: WaGa
# test description: qHTS assay to identify novel small-molecules to repurpose for Merkel cell carcinoma treatment (AID 1296009); note: nearly all actives have a fitted effect of over 60% in size
# measurement conditions: MCC and control cell lines, CellTiter-Glo viability, 72 h; series mostly up to 46 µM
Records with an inconclusive call do not appear. The source made the active and inactive calls. Calls come from the whole dose curve; as a rule, active = well fitted inhibition curve with a large enough effect; inconclusive = small, poorly fitted or top-dose-only effect; inactive = flat fitted curve, though single readings scatter.
Would you mind answering with one of these outcomes? Yes for active, No for inactive

Some solved entries appear below for comparison.
1) CN(C)CC(C)(C)CNc1nn2c(-c3ccccc3)nnc2cc1C1CCC1
Yes
2) CN(C)c1nc(Cc2ccc(NC(=O)c3ccc4ccccc4c3)cc2)nc(Cl)c1CC(=O)O
No
3) Nc1ccc(C(=O)c2cc3c(ccc4ccccc43)[nH]2)cc1
Yes

## Task # outcome recorded in this test, key = CC(C)(C)c1cc(NC(=O)Nc2ccc(-c3cn4c(n3)sc3cc(OCCN5CCOCC5)ccc34)cc2)no1
## Result No

## Task Could you do the same for Cc1ccc(S(=O)(=O)Nc2cc(Cl)ccc2C(=O)Nc2nc(-c3ccccc3)cs2)cc1 , please?
## Result No

## Task Could you do the same for O=C(NCCS(=O)(=O)c1ccc(C(F)(F)F)cn1)c1ccc(Cl)cc1 , please?
## Result No

## Task Could you do the same for CCCCCCCCCC(=O)N[C@@H](Cc1c[nH]c2ccccc12)C(=O)N[C@H](CC(N)=O)C(=O)N[C@@H](CC(=O)O)C(=O)N[C@@H]1C(=O)NCC(=O)N[C@@H](CCCN)C(=O)N[C@@H](CC(=O)O)C(=O)N[C@H](C)C(=O)N[C@@H](CC(=O)O)C(=O)NCC(=O)N[C@H](CO)C(=O)N[C@@H]([C@@H](C)CC(=O)O)C(=O)N[C@@H](CC(=O)c2ccccc2N)C(=O)O[C@@H]1C , please?
## Result No

* * *

# test description: qHTS of pediatric cancer cell lines to identify multiple opportunities for drug repurposing: Primary screen for SK-N-SH cells (AID 1347098); note: nearly all actives have a fitted effect of over 65% in size
# measurement conditions: SK-N-SH viability, CellTiter-Glo luminescence, 48 h; series mostly up to 57 µM
Records with an inconclusive call do not appear. Active and inactive are the calls of the source. The call rests on the fitted dose curve; in most records, active means well fitted cell-killing curve with a large enough effect; inconclusive means small, poorly fitted or top-dose-only effect; inactive means no such curve, though single readings can be large or run the other way.
Would you mind answering with one of these outcomes? 1 for active, -1 for inactive

Some solved entries appear below for comparison.
1) COc1ccc(-n2nc(C(N)=O)c3c2C(=O)N(c2ccc(N4CCCCC4=O)cc2)CC3)cc1
-1
2) CN(C)c1nc(Cc2ccc(NC(=O)c3ccc4ccccc4c3)cc2)nc(Cl)c1CC(=O)O
-1
3) Nc1ccccc1NC(=O)c1ccc(CNC(=O)OCc2cccnc2)cc1
1
4) COc1cc2c(Oc3ccc4[nH]c(C)cc4c3F)ncnc2cc1OCCCN1CCCC1
1

Below: the item to evaluate.
## Task # outcome recorded in this test, key = CCn1nnc2c(N3CCOCC3)nc(-c3ccc(NC(=O)Nc4ccc(C(=O)N5CCN(C)CC5)cc4)cc3)nc21
## Result 1

* * *

# test description: qHTS drug screen for cell cycle checkpoint inhibitors in PARPi-resistant BRCA-mutant ovarian cancer cell lines. (AID 1963452)
# measurement conditions: PEO1/OlaR viability, CellTiter-Glo luminescence, 96 h; stronger effect = lower value
Below is a list of entries, each paired with its recorded Z-AUC value.
The answer should be written as a number, with no unit following it.

## Task Any idea what its Z-AUC is? The compound is Cn1c(CNc2ccc(C(=N)N)cc2)nc2cc(C(=O)N(CCC(=O)O)c3ccccn3)ccc21
## Result 3.54

## Task Could you do the same for CC(C)c1ccccc1Cc1cc(C(=O)Nc2ccc(S(=O)(=O)c3ccccc3C(C)(C)C)cc2)c(O)c(O)c1O , please?
## Result 0.413

## Task Could you do the same for C=CC(=O)Nc1cccc(Oc2nc(Nc3ccc(N4CCN(C)CC4)cc3)ncc2Cl)c1 , please?
## Result -0.847

## Task Could you do the same for Nc1ncnc2c1c(-c1cccc(OCc3ccccc3)c1)cn2C1CC(CN2CCCC2)C1 (centres undefined) , please?
## Result -0.938

## Task Could you do the same for Cc1ccc2nc(NC(=O)CSc3nc4c(c(=O)n3-c3ccccc3)SCC4)sc2c1 , please?
## Result 1.55

* * *

# test description: qHTS of pediatric cancer cell lines to identify multiple opportunities for drug repurposing: Confirmatory screen for NB-EBc1 cells (AID 1347115);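 note: cells exposed to compound for 48 h before the viability read; nearly all actives have a fitted effect of over 45% in size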
# measurement conditions: NB-EBc1 neuroblastoma cells, viability (cytotoxicity); series mostly up to 45.9 µM
Records with an inconclusive call do not appear. The source made the active and inactive calls. Calls follow the shape of the dose curve; as a rule, active = well fitted cell-killing curve with a large enough effect; inconclusive = small, poorly fitted or top-dose-only effect, or effect the other way; inactive = no such curve, though single readings can be large or run the other way.
Would you mind answering with one of these outcomes? T (active), F (inactive)

Some solved entries appear below for comparison.
1) CC(C)c1nn(-c2c(Cl)cccc2Cl)c2nc(Cc3ccc(OCCO)cc3)[nH]c(=O)c12
F
2) COc1cccc2c(NCc3ccccc3)nc(-n3c(N)nc4ccccc43)nc12
T
3) Cc1[nH]c2ccccc2c1CCNCc1ccc(C=CC(=O)NO)cc1
T

## Task # outcome recorded in this test, key = CCOc1cc2ncc(C#N)c(Nc3ccc(F)c(Cl)c3)c2cc1NC(=O)C=CCN(C)C
## Result F

* * *

# test description: qHTS of pediatric cancer cell lines to identify multiple opportunities for drug repurposing: Primary screen for Rh30 cells (AID 1347107); note: nearly all actives have a fitted effect of over 75% in size
# measurement conditions: Rh30 rhabdomyosarcoma viability, CellTiter-Glo luminescence, 48 h; series mostly up to 46 µM
Results filed as inconclusive are left out. Activity calls are given as the source filed them. Calls come from the whole dose curve; as a rule, active = well fitted cell-killing curve with a large enough effect; inconclusive = small, poorly fitted or top-dose-only effect; inactive = no such curve, though single readings can be large or run the other way.
Would you mind answering with one of these outcomes? 1 = active, -1 = inactive

Some solved entries appear below for comparison.
1. COc1ccc(-c2cc3c(C)nc(N)nc3n(C3CCC(OCCO)CC3)c2=O)cn1 (configuration not stated)
1
2. Nc1cc(C(F)(F)F)c(-c2cc(N3CCOCC3)nc(N3CCOCC3)n2)cn1
1
3. Cn1c(CNc2ccc(C(=N)N)cc2)nc2cc(C(=O)N(CCC(=O)O)c3ccccn3)ccc21
-1
4. CC[C@H]1CN2CCc3cc(OC)c(OC)cc3[C@H]2C[C@@H]1C[C@@H]1NCCc2cc(OC)c(OC)cc21
-1
5. CCn1cc(-c2ccnc3[nH]c(-c4cccc(CN(C)C)c4)cc23)c(-c2ccc(NC(=O)N(C)C)cc2)n1
1
6. Cc1cc(Nc2cc(CN3CCOCC3)c3nc(C)c(Cc4ccc(Cl)cc4F)n3n2)n[nH]1
1
7. COc1cc2c(Oc3ccc(NC(=O)C4(C(=O)Nc5ccc(F)cc5)CC4)cc3F)ccnc2cc1OCCCN1CCOCC1
1
8. Cc1ccc(C(=O)Nc2ccc(CN3CCN(C)CC3)c(C(F)(F)F)c2)cc1C#Cc1cnc2cccnn12
1
9. CNC(=O)c1c(F)cccc1Nc1nc(Nc2cc3c(cc2OC)CCN3C(=O)CN(C)C)nc2[nH]ccc12
1
10. CN(C)CC=CC(=O)Nc1cc2c(Nc3ccc(F)c(Cl)c3)ncnc2cc1O[C@H]1CCOC1
1

## Task # outcome recorded in this test, key = CCN(CC)CCNC(=O)c1ccc2nc(-c3ccccc3)c(-c3ccc(CN4CCC(n5c(=O)[nH]c6ccccc65)CC4)cc3)nc2c1
## Result 1

## Task Could you do the same for CC(C)c1ccc(Cn2ccc3c4c(N)nc(NC5CC5)nc4ccc32)cc1 , please?
## Result 1
